Known pIC50 of a selection of compounds
measurement target: human Nav1.8 (Homo sapiens, UniProt Q9Y5Y9)
Sequence (Q9Y5Y9 whole entry): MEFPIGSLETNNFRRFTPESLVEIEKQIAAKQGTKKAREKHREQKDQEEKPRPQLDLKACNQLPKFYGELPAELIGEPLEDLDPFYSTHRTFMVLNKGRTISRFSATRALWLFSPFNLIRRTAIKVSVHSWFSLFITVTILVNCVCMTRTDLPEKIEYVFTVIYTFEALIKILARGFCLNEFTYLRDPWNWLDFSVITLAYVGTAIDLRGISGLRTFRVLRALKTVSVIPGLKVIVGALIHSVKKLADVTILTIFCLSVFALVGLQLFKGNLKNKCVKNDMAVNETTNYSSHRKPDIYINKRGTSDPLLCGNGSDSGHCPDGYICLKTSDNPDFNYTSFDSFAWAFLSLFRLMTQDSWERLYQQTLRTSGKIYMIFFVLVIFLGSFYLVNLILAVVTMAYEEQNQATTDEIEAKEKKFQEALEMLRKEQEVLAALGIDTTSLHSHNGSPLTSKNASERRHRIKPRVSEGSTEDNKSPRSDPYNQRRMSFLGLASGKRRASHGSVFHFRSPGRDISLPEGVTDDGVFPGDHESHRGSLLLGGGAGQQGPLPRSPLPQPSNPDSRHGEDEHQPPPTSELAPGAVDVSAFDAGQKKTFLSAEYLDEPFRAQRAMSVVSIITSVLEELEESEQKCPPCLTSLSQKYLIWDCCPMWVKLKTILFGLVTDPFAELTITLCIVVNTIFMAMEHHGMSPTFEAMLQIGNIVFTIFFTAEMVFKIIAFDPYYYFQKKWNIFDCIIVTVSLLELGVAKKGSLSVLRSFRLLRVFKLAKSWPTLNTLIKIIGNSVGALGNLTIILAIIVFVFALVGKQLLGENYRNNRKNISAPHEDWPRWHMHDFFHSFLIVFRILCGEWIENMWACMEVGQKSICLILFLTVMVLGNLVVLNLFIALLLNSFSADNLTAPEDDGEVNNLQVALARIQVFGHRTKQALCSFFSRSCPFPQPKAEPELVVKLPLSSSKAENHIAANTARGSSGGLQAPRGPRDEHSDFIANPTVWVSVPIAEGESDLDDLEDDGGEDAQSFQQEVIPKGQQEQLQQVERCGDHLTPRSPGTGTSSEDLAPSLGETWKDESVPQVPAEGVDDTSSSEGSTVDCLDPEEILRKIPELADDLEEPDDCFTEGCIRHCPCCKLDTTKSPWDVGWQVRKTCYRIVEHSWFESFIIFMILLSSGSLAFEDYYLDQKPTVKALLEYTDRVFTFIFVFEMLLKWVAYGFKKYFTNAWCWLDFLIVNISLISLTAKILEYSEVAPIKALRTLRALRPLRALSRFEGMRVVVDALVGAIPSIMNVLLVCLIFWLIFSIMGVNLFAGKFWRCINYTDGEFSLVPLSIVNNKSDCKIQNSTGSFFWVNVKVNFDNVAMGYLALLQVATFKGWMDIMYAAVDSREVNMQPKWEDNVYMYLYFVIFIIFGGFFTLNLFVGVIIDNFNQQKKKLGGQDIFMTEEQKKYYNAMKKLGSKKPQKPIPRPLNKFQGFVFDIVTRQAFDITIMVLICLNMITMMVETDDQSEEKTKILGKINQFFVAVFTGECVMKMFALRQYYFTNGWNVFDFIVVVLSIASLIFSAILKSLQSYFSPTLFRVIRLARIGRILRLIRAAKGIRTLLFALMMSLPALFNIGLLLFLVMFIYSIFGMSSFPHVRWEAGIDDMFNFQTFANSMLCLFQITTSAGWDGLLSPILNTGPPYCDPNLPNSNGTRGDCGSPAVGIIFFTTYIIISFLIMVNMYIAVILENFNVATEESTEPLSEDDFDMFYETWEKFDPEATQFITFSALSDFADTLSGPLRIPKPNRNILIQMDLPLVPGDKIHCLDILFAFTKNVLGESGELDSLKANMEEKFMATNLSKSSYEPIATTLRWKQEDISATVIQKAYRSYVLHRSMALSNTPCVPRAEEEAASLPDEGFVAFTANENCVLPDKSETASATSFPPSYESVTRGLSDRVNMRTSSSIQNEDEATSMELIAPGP
protocol: SyncroPatch384PE assay (automated patch clamp)
Type: cell-based
settings: resting state block (P1 measurement), human Nav1.8/b3 CHO cells, read-out: P1 IC50
pIC50: −log10 of the molar value.

- compound: "Cc1c(C#N)cnc(N2CCCC(F)(F)CC2)c1C(=O)NC12CC(C(N)=O)(C1)C2 [Example 136]"
  pIC50: "≥ 8.30"
- compound: "Cc1c(-c2cc(F)cc(F)c2)cnc(N2CCCC(F)(F)CC2)c1C(=O)Nc1cccc([S@](C)(=N)=O)c1 [Example 61]"
  pIC50: "≥ 8.30"
- compound: "Cc1c(Br)c(C(F)(F)F)nc(N2CCCC(F)(F)CC2)c1C(=O)Nc1cccc([S@](C)(=N)=O)c1 [Example 130]"
  pIC50: "≥ 8.30"
- compound: "Cc1c(-c2ccc3c(c2)OCCO3)cnc(N2CCCC(F)(F)CC2)c1C(=O)Nc1cccc([S@](C)(=N)=O)c1 [Example 47]"
  pIC50: "7.30 to 8.30"
- compound: "Cc1c(Br)cnc(N2CCCC(F)(F)CC2)c1C(=O)Nc1cccc(S(C)(=N)=O)c1 (stereo not drawn) [Example 86]"
  pIC50: "≥ 8.30"
- compound: "Cc1c(-c2cccc(C#N)c2)cnc(N2CCCC(F)(F)CC2)c1C(=O)Nc1cccc(S(C)(=N)=O)c1 (stereo not drawn) [Example 91]"
  pIC50: "7.30 to 8.30"
- compound: "Cc1c(C(F)(F)F)cnc(N2CCCC(F)(F)CC2)c1C(=O)Nc1cccc([S@](C)(=N)=O)c1 [Example 164]"
  pIC50: "≥ 8.30"
- compound: "CC#Cc1cnc(N2CCCC(F)(F)CC2)c(C(=O)Nc2cccc([S@](C)(=N)=O)c2)c1C [Example 127]"
  pIC50: "≥ 8.30"
- compound: "Cc1nc(N2CCCC(F)(F)CC2)c(C(=O)Nc2ccnc(S(C)(=N)=O)c2)cc1C(F)(F)F (stereo not drawn) [Example 101]"
  pIC50: "≥ 8.30"
- compound: "Cc1nc(N2CC(F)(F)C2)nc(N2CCCC(F)(F)CC2)c1C(=O)Nc1cccc([S@](C)(=N)=O)c1 [Example 158]"
  pIC50: "7.00 to 7.30"
- compound: "Cc1c(-c2cnn(C)c2)cnc(N2CCCC(F)(F)CC2)c1C(=O)Nc1ccc(F)c([S@@](C)(=N)=O)c1 [Example 213]"
  pIC50: "6.70 to 7.00"
- compound: "Cc1ccnc(N2CCCC(F)(F)CC2)c1C(=O)Nc1cccc(S(C)(=N)=O)c1 (stereo not drawn) [Example 105]"
  pIC50: "7.00 to 7.30"
- compound: "CNCC(=O)N=[S@](C)(=O)c1cccc(NC(=O)c2c(N3CCCC(F)(F)CC3)nnc(C(F)(F)F)c2C)c1 [Example 43]"
  pIC50: "≥ 8.30"
- compound: "Cc1c(-c2ccc(C#N)cc2)cnc(N2CCCC(F)(F)CC2)c1C(=O)Nc1cccc([S@](C)(=N)=O)c1 [Example 49]"
  pIC50: "≥ 8.30"
- compound: "Cc1cc(C(F)(F)F)nc(N2CCCC(F)(F)CC2)c1C(=O)Nc1cccc([S@](C)(=N)=O)c1 [Example 33]"
  pIC50: "≥ 8.30"

###

System: human plasma protein
protocol: Human plasma protein binding by equilibrium dialysis
Format: in vitro ADME
settings: equilibrium dialysis
Description: Table 3 presents the human and rat plasma protein binding data (% unbound) for the compounds of Table 2. Comparator compounds A, B, C have been previously reported as inhibitors of Na, 1.8 in WO2020/092667. Comparator D, not previously reported, is offered as an additional sulfonamido example.

- compound: "Cc1nc(N2CCCC(F)(F)CC2)c(C(=O)Nc2ccnc(S(N)(=O)=O)c2)cc1C(F)(F)F [Compound A, reference compound]"
  Human Plasma, Unbound % (%): 0.24
- compound: "NS(=O)(=O)c1cccc(NC(=O)c2cc(C(F)(F)F)nnc2N2CCCC(F)(F)CC2)c1 [Compound B, reference compound]"
  Human Plasma, Unbound % (%): 17.4
- compound: "Cc1nc(N2CCCC(F)(F)CC2)c(C(=O)Nc2cccc(S(N)(=O)=O)c2)cc1C(F)(F)F [Compound D, reference compound]"
  Human Plasma, Unbound % (%): 0.31
- compound: "Cc1nc(N2CCCC(F)(F)CC2)c(C(=O)Nc2ccnc(S(N)(=O)=O)c2)cc1Cl [Compound C, reference compound]"
  Human Plasma, Unbound % (%): 0.53
- compound: "Cc1nc(N2CCCC(F)(F)CC2)c(C(=O)Nc2cccc([S@](C)(=N)=O)c2)cc1C(F)(F)F [Example 4]"
  Human Plasma, Unbound % (%): 0.9
- compound: "Cc1nc(N2CCCC(F)(F)CC2)c(C(=O)Nc2cccc(S(C)(=N)=O)c2)cc1Cl (stereo in doubt) [Example 17]"
  Human Plasma, Unbound % (%): 1.7
- compound: "Cc1nc(N2CCCC(F)(F)CC2)c(C(=O)Nc2ccnc(S(C)(=N)=O)c2)cc1C(F)(F)F (stereo not shown) [Example 101]"
  Human Plasma, Unbound % (%): 1.8

###

measurement target: human Nav1.8 (Homo sapiens, UniProt Q9Y5Y9)
protocol: SyncroPatch384PE assay (automated patch clamp)
Assay type: cell-based
settings: inactivated state block (P2 measurement), human Nav1.8/b3 CHO cells, read-out: P2 IC50
Counter-ions that a name gives are not always drawn.

- molecule: "CNCC(=O)N=[S@](C)(=O)c1cccc(NC(=O)c2c(N3CCCC(F)(F)CC3)ncc(-c3cnn(C)c3)c2C)c1"
  IC50: "5 to 50 nM"
- molecule: "Cc1nc(-c2cnn(C)c2)nc(N2CCCC(F)(F)CC2)c1C(=O)Nc1cccc([S@](C)(=N)=O)c1"
  IC50: "100 to 200 nM"
- molecule: "Cc1c(C#N)c(C(F)(F)F)nc(N2CCCC(F)(F)CC2)c1C(=O)Nc1cccc([S@@](C)(=O)=NC(=O)CCN)c1 [Example 58, formate]"
  IC50: "≤ 5 nM"
- molecule: "O=C(Nc1ccnnc1)c1nnc(C(F)(F)F)cc1N1CCCC(F)(F)CC1"
  IC50: "> 200 nM"
- molecule: "Cc1c(-c2ccc(F)cc2)cnc(N2CCCC(F)(F)CC2)c1C(=O)Nc1cccc(S(C)(=N)=O)c1 (stereo not shown)"
  IC50: "≤ 5 nM"
- molecule: "O=C(Nc1cc[nH]c(=O)c1)c1nnc(C(F)(F)F)cc1N1CCCCCC1"
  IC50: "> 200 nM"
- molecule: "Cc1cc(C#N)nc(N2CCCC(F)(F)CC2)c1C(=O)Nc1ccnc([S@](C)(=N)=O)c1"
  IC50: "5 to 50 nM"

###

measurement target: human Nav1.8 (Homo sapiens)
protocol: SyncroPatch384PE assay (automated patch clamp)
Format: cell-based
settings: inactivated state block (P2 measurement), human Nav1.8/b3 CHO cells, read-out: P2 IC50
pIC50: −log10 of the molar value.

- molecule: "CNCC(=O)N=[S@](C)(=O)c1cccc(NC(=O)c2c(N3CCCC(F)(F)CC3)ncc(C#N)c2C)c1 [Example 126]"
  pIC50: "≥ 8.30"
- molecule: "C[S@@](=N)(=O)c1cccc(NC(=O)c2c(N3CCCC(F)(F)CC3)ncc(Cl)c2F)c1 [Example 226]"
  pIC50: "≥ 8.30"
- molecule: "Cc1c(-c2cc(F)cc(F)c2)cnc(N2CCCC(F)(F)CC2)c1C(=O)Nc1cccc([S@](C)(=N)=O)c1 [Example 61]"
  pIC50: "≥ 8.30"

###

Below is a list of entries, each paired with its recorded pIC50 value.
measurement target: human Nav1.8 (Homo sapiens, UniProt Q9Y5Y9)
protocol: SyncroPatch384PE assay (automated patch clamp)
Assay type: cell-based
settings: resting state block (P1 measurement), human Nav1.8/b3 CHO cells, read-out: P1 IC50
pIC50: −log10 of the molar value.

- compound: "Cc1c(-c2cnn(C)c2)cnc(N2CCCC(F)(F)CC2)c1C(=O)Nc1cccc([S@@](C)(=O)=NC(=O)CN)c1 [Example 74]"
  pIC50: "7.30 to 8.30"
- compound: "C[S@](=N)(=O)c1cccc(NC(=O)c2cc(C(F)(F)F)nnc2N2CCCC(F)(F)CC2)c1 [Example 19]"
  pIC50: "< 6.70"
- compound: "Cc1c(C(F)(F)F)nnc(N2CCCC(F)(F)CC2)c1C(=O)Nc1cccc([S@@](C)(=O)=NC(=O)C2(N)CCC2)c1 [Example 234]"
  pIC50: "≥ 8.30"
- compound: "C[S@@](=N)(=O)c1cccc(NC(=O)c2cc(Cl)c(C(F)(F)F)cc2N2CCC(C(F)(F)F)CC2)c1 [Example 219]"
  pIC50: "≥ 8.30"
- compound: "Cc1c(C(=O)Nc2cccc([S@](C)(=N)=O)c2)c(N2CCCC(F)(F)CC2)nc(C(F)(F)F)c1-c1cnn(C)c1 [Example 133]"
  pIC50: "≥ 8.30"
